Documented self-splicing fitness (ln) across a set of sequences
experiment: self-splicing fitness, log relative to wild type (ln ratio); higher = more splicing; Tetrahymena group I intron in knt gene, E. coli kanamycin selection, DiMSum; sequences stand for … in CUCUCU…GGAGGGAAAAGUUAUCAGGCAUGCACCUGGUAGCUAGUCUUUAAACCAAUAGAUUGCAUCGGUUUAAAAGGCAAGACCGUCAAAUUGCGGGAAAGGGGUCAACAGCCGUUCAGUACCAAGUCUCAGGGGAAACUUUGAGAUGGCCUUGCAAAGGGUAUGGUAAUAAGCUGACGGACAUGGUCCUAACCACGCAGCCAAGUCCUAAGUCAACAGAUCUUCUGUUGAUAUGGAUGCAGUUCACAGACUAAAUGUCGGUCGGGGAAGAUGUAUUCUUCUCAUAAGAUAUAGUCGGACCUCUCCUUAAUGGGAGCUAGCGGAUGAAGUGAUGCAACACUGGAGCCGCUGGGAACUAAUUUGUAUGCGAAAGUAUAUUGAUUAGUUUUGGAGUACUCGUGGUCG; conditions: 37 °C;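 further: selection with 25 µg/mL kanamycin versus none on LB agar overnight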
// no unit string in output, number only

>  <seq_string>
UCGCAGCAAUAUUACGAGGA

>  <property_label>
self-splicing fitness (ln)

>  <measured_value>
-0.7

$$$$
>  <seq_string>
AUUCAGCAAUAUUACGGGGA

>  <property_label>
self-splicing fitness (ln)

>  <measured_value>
-0.802

$$$$
>  <seq_string>
UCUAAGCAAUAUUACGUCGU

>  <property_label>
self-splicing fitness (ln)

>  <measured_value>
-0.695

$$$$
>  <seq_string>
GUCUAGCAAUAUUACGUCUU

>  <property_label>
self-splicing fitness (ln)

>  <measured_value>
1.25

$$$$
>  <seq_string>
UCUUAGCAAUAUUACGCGUA

>  <property_label>
self-splicing fitness (ln)

>  <measured_value>
-1.38

$$$$

As a next step, examine the sequence that follows.
So what's the measured self-splicing fitness (ln) for this one? UCUAAGCAAUAUUACGAGCG
-0.708

----------
Below, each entry is listed with its recorded self-splicing fitness (ln).
assay: self-splicing fitness, log relative to wild type (ln ratio); higher = more splicing; Tetrahymena group I intron in knt gene, E. coli kanamycin selection, DiMSum; sequences stand for … in CUCUCU…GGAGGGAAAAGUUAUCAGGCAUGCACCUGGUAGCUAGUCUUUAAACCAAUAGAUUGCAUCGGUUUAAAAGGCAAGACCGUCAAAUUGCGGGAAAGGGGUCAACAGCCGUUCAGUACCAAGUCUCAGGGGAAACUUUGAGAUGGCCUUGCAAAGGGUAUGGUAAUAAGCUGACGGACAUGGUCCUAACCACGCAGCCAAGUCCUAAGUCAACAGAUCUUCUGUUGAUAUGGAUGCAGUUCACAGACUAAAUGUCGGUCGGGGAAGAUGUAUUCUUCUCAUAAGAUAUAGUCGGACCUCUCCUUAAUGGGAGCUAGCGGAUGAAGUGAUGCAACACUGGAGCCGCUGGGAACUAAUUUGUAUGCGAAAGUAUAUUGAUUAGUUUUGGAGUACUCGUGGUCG; conditions: 30 °C

>  <seq_string>
UACCAGCAAUAUUACGGAUA

>  <property_label>
self-splicing fitness (ln)

>  <measured_value>
-1.12

$$$$

The record that follows has no self-splicing fitness (ln) shown yet.
Item under review: AGUUAGCAAUAUUACGUUAA . Reported self-splicing fitness (ln)?
-3.56
